Reported IC50 values for a set of compounds
# PROCEDURE_TEXT: Inhibition of mouse full length GST-tagged B-Raf V600E mutant-mediated human MEK1 phosphorylation after 1 hr preincubation
ENDPOINT_LABEL: IC50 (µM)

> print(dat)
                                   compound  endpoint.label  value.modifier  observed.measurement
1  Cc1ccc(N2C(=O)c3ccccc3SC2c2cc(Br)ccc2O)cc1 (stereo not given)            IC50               >                    25
2  O=C1c2ccccc2SC(c2cc(Br)ccc2O)N1c1ccc(C(F)(F)F)cc1 (stereo not given)            IC50               >                    25
3  O=c1cc(-c2ccc3c(c2)OCCO3)oc2cc(CCCN3CCCC3)cc(O)c12            IC50               =                  10.6
4  Cc1ccc(N(Cc2cc(Cl)cc(Cl)c2O)CN(N=O)c2ccccc2)cc1            IC50               =                  8.61
5  CNC(=O)c1cc(Oc2ccc(NC(=O)Nc3ccc(Cl)c(C(F)(F)F)c3)cc2)ccn1            IC50               =                  0.06
